Biological target: T1, muIgG2a monoFc huCLL1 (+) (human)
T1 construct: ELISA coating antigen
T1 sequence (Q5QGZ9 65-265): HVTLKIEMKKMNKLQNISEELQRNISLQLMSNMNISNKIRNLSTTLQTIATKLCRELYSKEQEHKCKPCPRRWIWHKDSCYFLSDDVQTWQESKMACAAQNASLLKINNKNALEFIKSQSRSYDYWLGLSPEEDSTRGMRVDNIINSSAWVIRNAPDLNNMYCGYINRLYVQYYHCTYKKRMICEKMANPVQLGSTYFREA
Assay: ELISA, plate coated with antigen 1 ug/mL; antibody 10.00 ug/mL in well
Protocol: ELISA Validation: Antibodies identified by the Beacon screen were made recombinantly and validated for binding to CLL1. High-binding ELISA plate was coated with muIgG2a monoFc huCLL1 (+) (1 μg/mL) overnight at 4° C. After removal of the antigen, the wells were blocked with 2% BSA in 1×PBS for 1 hour. The BSA was then removed and the primary antibody was added to the wells in 1×PBS solution, incubated at RT for 1 hour. The wells were washed four times with 1×PBS. […] The plates were read at 450 nm.
Answer each item with its documented OD 450 nm.
Numbers only, in OD.

Here's what some known entries look like.
INSERT INTO measurements (binder, recorded_result) VALUES
  ('D2AD89041-10444 (antibody, V domains shown, also called mAb_049) VH: EVQLLESGGGLVQPGGSLRLSCAASGFTFNNYVMAWVRQVPGKGLEWVSGISGSGLITSYAASVKDRFTISRDNSNNTVYLQMKSLRAEDTAVYFCAKEPHVLLDDYMDVWGKGTTVTVSS VL: EIVLTQSPATLSLSPGERATLSCGASQSVTSSYLAWYQQKPGLAPRLLIYDASNRATGIPDRFSGSGSGTDFTLTISRLEPEDFAVYYCQQYGRSLTFGGGTKVEIK', 0.205),
  ('D2AD88607-5141 (antibody, V domains shown, also called mAb_038) VH: QVQLVESGGGVVQPGRSLRLSCAASGFTFSSYGMHWVRQAPGKGLEWVAIISYDGSDKYYADSVKGRFTISRDNSKNTLYLQMNSLRAEDTAVYYCARNYNYYMDVWGKGTTVTVSS VL: EIVMTQSPATLSLSPGERATLSCRASQSVRSSYLSWYQQKPGQAPRLLIYGTSTRATGIPARFSGSGSGTDFTLTISSLQPEDFAVYYCQQDYNLPLTFGGGTKVEIK', 2),
  ('D2AD88607-7048 (antibody, V domains shown, also called mAb_042) VH: EVQLVESGGGLVQPGGSLRLSCAASGFTFSSYDMHWVRQATGKGLEWVSAIGTAGDKYYLASVKGRFTISRENAKNSLYLQMNSLRAGDTAVYYCVRDSLTGPTVTPYMDVWGKGTTVTVSS VL: EIVLTQSPDFQSVTPKEKVTITCRASQSIGSGLHWYQQKPDQSPKLLIIYASQSISGVPSRFSGSGSGTDFTLTINSLEAEDAAAYYCHQSSSLPYTFGQGTKLEIK', 1.57);

Please fill in: OD 450 nm reported for D2D88607-9226 (antibody, V domains shown, also called mAb_023) VH: QVQLQQWGAGLLKPSETLSLTCAVYGGSFSGYYWSWIRQPPGKGLEWIGEFNHSGGPNYNPSLKSRVTISTDTSNNQFSLKLSSVTAADTAVYYCARGTTGNYYYYMDVWGKGTTVTVSS VL: AIQMTQSPSSLSASVGDRVTITCRASQGIRNDLGWYQQKPGKAPKLLIYAASSLQSGVPSRFSGSGSGTDFTLTISSLQPEDFATYYCLQDYIYPPTFGPGTKLEIK = 1.75

Just for reference, patent US20250388680A1 is where these values come from.
